# credit: patent US20080269298A1

System: colon (HCT116) tumor cell line
method: Methylene Blue Growth Inhibition Assay, HCT116
Assay type: cell-based
measurementConditions: Homo sapiens, HCT-116, 72 h; Cell Line HCT116, 3 days; read-out: MeB IC50
pIC50: −log10 of the molar value.
Documented pIC50 across a set of molecules

// known answers, use as guide
# molecule, pIC50
data = [
    ("O=C(O)c1sc(-n2cnc3ccc(Br)cc32)cc1OCc1ccccc1C(F)(F)F [Example 74]", "< 5.00"),
    ("COc1cc2ncn(-c3cc(OCc4ccccc4Br)c(C(=O)O)s3)c2cc1OC [Example 76]", "< 5.00"),
    ("NC(=O)c1sc(-n2cnc3ccccc32)cc1NCc1ccccc1C(F)(F)F [Example 133]", "5.00 to 6.00"),
    ("COc1cc2ncn(-c3cc(OCc4ccnc(N)c4)c(C(N)=O)s3)c2cc1OC [Example 100]", "< 5.00"),
    ("NC(=O)c1sc(-n2cnc3ccccc32)cc1C#Cc1ccccc1 [Example 129]", "< 5.00"),
    ("COc1cc2ncn(-c3cc(OCc4ccccc4C#N)c(C(N)=O)s3)c2cc1OC [Example 95]", "5.00 to 6.00"),
]

What is its pIC50 for colon (HCT116) tumor cell line? Entry: COc1cc2ncn(-c3cc(OCCN4CCOCC4)c(C(N)=O)s3)c2cc1OC [Example 113] < 5.00

What is its pIC50 for colon (HCT116) tumor cell line? Entry: COc1cc2ncn(-c3cc(OCc4ccccc4C(C)=O)c(C(N)=O)s3)c2cc1OC [Example 105] 5.00 to 6.00

What is its pIC50 for colon (HCT116) tumor cell line? Entry: NC(=O)c1sc(-n2cnc3ccc(C(F)(F)F)cc32)cc1OCc1ccccc1Br [Example 119] 5.00 to 6.00

What is its pIC50 for colon (HCT116) tumor cell line? Entry: NC(=O)c1sc(-n2cnc3cc4c(cc32)OCCCO4)cc1OCc1ccccc1C(F)(F)F [Example 89] 5.00 to 6.00

What is its pIC50 for colon (HCT116) tumor cell line? Entry: COc1cc2ncn(-c3cc(OCc4ccccc4C(F)(F)F)c(C(N)=O)s3)c2cc1OCCN1CCN(C)CC1 [Example 136] > 6.00

What is its pIC50 for colon (HCT116) tumor cell line? Entry: COc1cc2ncn(-c3cc(OC(C)c4ccccc4Cl)c(C(N)=O)s3)c2cc1OC (centres unmarked) [Example 126] > 6.00

What is its pIC50 for colon (HCT116) tumor cell line? Entry: NC(=O)c1sc(-n2cnc3ccc(OCC(F)(F)F)cc32)cc1OCc1ccccc1C(F)(F)F [Example 87] 5.00 to 6.00

What is its pIC50 for colon (HCT116) tumor cell line? Entry: O=C(O)c1sc(-n2cnc3ccc(Cl)cc32)cc1OCc1ccc(F)cc1F [Example 71] < 5.00

What is its pIC50 for colon (HCT116) tumor cell line? Entry: COc1cc2ncn(-c3cc(OCc4ccccc4OC(F)(F)F)c(C(N)=O)s3)c2cc1OC [Example 107] 5.00 to 6.00

What is its pIC50 for colon (HCT116) tumor cell line? Entry: O=C(O)c1sc(-n2cnc3cc(Cl)c(Cl)cc32)cc1OCc1ccoc1 [Example 77] < 5.00

What is its pIC50 for colon (HCT116) tumor cell line? Entry: Cc1ccccc1COc1cc(-n2cnc3cc(Cl)c(Cl)cc32)sc1C(=O)O [Example 66] < 5.00
